# protocol: yeast display, Sf9 membrane polyspecificity reagent, FACS + sequencing; frameworks hold sequencing errors
attribute measured: polyreactivity (PSR sort gate)

input sequence	reported result
QVQLVESGGGLVQAGGSLRLSCAASGSIFYRNAMGWYRQAPGKERELVAAITWSGVNTYYADSVKGRFTISRDNAKNTVYLQMNSLKPEDTAVYYCAVPSRYWLNRGFDYWGQGTQVTVSS	low polyreactivity
QVQLVESGGGLVQAGGSLRLSCAASGSTFAANAMGWYRQAPGKERELVAAITSSGGSTYYADSVKGRFTISLDNEKNTVYLQMNSLKPEDTAVYYCNKDIERYVRIYDSWGQGTQVTVSS	low polyreactivity
QVQLVESGGGLVQAGGSLRLSCAASGSISGYNAMGWYRPAPGKERELVAVITTDGSTNYADSVKGRFTISRDNAKNTVYLQMNSLKPEDTAVYYCNTDDGWRLLWEYDYWGQGTQVTVSS	low polyreactivity

---

# protocol: yeast display, Sf9 membrane polyspecificity reagent, FACS + sequencing; frameworks hold sequencing errors
attribute measured: polyreactivity (PSR sort gate)

Example results:
input sequence	polyreactivity (PSR sort gate)
QVQLVESGGGLVQAAGSLRLSSAASGLIFPYYVMGWYRQAPGKERELVAAISVSGGNTYYADSVKGRFTITRDNAKYTVYLQLNSLKPVDTAVYYSAADHYRGSYDYWGQGSQVTVSS	high polyreactivity
QVQLVESGVGLVQAGGSLRLSCAASGRIISRYAMGWYRQAPGKERELDAAISRRGGSTYYADSVKGRFTISRDNAKNTVYLQMNSLKPEDTAVYYCNADTGNRGYDYWGQGTQVTVSS	high polyreactivity
QVQLVESGGGLVQAGGSLRLICAASGSTFESYAMGWYRQAPGKERELVAAISRRGGRTYYADSVKGRFTISRDNAMNTVSLQMYSLKPEDTAVYYCATDSSYYGSDDYWGQGTQVTVSS	high polyreactivity
QVQLVESGGGLVQAGGSLRLSCAASGRIFVFYAMGWYRQAPGKVREFVATISYSGDTTYYADSVKGRFTISRDNAKNTVYLEMNSLKPEDTAVYYCAADQVPSYYYVPLGYDSWGQGTQVTVSS	low polyreactivity

polyreactivity (PSR sort gate) recorded for this sequence, QVQLVESGGGLDQAGGSLRLSCAASGYTFLIYAMGWYRQAPGKERELVAAISYRDGRTYYADSVKGRFTISRDNAKNTVYLQMNSLNPEDTAVYYCAATLFYQPYRSYYYWGQGTQVTVSS , is high polyreactivity

polyreactivity (PSR sort gate) recorded for this sequence, QVQLVESGGGLVQAGGSLRLSCAASGFTFYGNAMGWYRQAPGKERELVAAISSSGGITYYADSVKGRFTISRDNAKNTVYLQMNSLKPEDTAVYYCAAVQGTPDYEYDSWGQGTQVTVSS , is low polyreactivity

polyreactivity (PSR sort gate) recorded for this sequence, QVQLVESGGGLVQAGGSLRLSCAASGFTFSENTMGWYRQAPGKERELVADIDSGGSTYYADSVKGRFTISRDNAKNTVYLQMNSLKPEVTAVYYCAIDYHVVGGQTFLFEYDYWGQGTQVTVSS , is low polyreactivity

polyreactivity (PSR sort gate) recorded for this sequence, QVQLVESGGGLVQAGGSLRLSCAASGSIYVWYDMGWYRQAPGKERELVDTISLSGVSTYYADSVKGRFTISRDNAKNTVYLQMNSLKPEDTAVYYCAADFVEQGEDDYWGQGTQVTVSS , is low polyreactivity

polyreactivity (PSR sort gate) recorded for this sequence, QVQLVESGGGLVQAGGSLRLSCAASGSISGLYAMGWYRQAPGKERELVARIRWRGDSTYYADSVKGRFTISRDNAKNTVYLQMNSLNPEDTAVYYCAASAYSGKVNKYNYWGQGTQVTVSS , is high polyreactivity

polyreactivity (PSR sort gate) recorded for this sequence, QVQLVESGGGLVQAGGSLRLSCAPSGFIFYFYTMGRYRQAPGKEMELVAGITWLDGSTYYADSVKGRLTISRDNAKNTVYLQRNSLKPEDTAVYYCAVDYDLVVSPYYYWGQGTQVTVSS , is low polyreactivity

polyreactivity (PSR sort gate) recorded for this sequence, QVQLVESGGGLVQAGGSLRLICDASGIIFYDYAMGWYRQAPGKERELVAAITSSGGSTYYADSVKGRFTISRDNAKNTVYLQMNSLKPEDTAVYYCAAATRGSGRRYDYWGQGTQVTLSS , is high polyreactivity

---

# protocol: yeast display, Sf9 membrane polyspecificity reagent, FACS + sequencing; frameworks hold sequencing errors
attribute measured: polyreactivity (PSR sort gate)

input sequence	attribute measured	reported result
QVQLVESGGGLVQAGGSLRLSCAASGRIFQYYVMGWYRQAPGKERELVAAITSGGGTKYADSVKGRFTISRDNAKNTVYLQMNSLKPEDTAVYYCAAAWFDQYSRYDYWGQGTQVTVSS	polyreactivity (PSR sort gate)	low polyreactivity
QVQLVESGGGLVQAGGSLRLSCAAYGRIFAPNAMGWYRQAPGKERELVATISWSGGSTYYADSVNGRFTISRDNSKNYVYLQMNSLKPEDTAVYYCAGSNYQYGVISYDYWGKGTQVTVSS	polyreactivity (PSR sort gate)	low polyreactivity
QVQLVESGGGLVQAGGSLLLSCAASGSTFRYYAMGWYRPAPGKERELVAATTSGGSTYYADSVKGRFTISRDNAKNTVYLQMNSLKPEDTAVYYCAKSISRYFFYRPSAAAYGYDYWGQGTQVTVSS	polyreactivity (PSR sort gate)	high polyreactivity
QVQLVESGGGLVQAGGSLRLSCAASGSIFTIYAMGWYRQAPGKERELVATITGIADSTYYADSVKGRFTISRDNAKNTVYLQMNSLKPEDTAVYYCAADKYVAEYDYWGQGTQVTVSS	polyreactivity (PSR sort gate)	low polyreactivity
QVQLVESGGGLVQAAPSLRLSCAASGSTINNNAMGWYRQAPRKERELVAAIDSGFSTNYADSVKGRFTISRDNAKNTVYLQMNSLKPEDTAVYYCYADPDYFDYWGQGTQVTVSS	polyreactivity (PSR sort gate)	low polyreactivity

polyreactivity (PSR sort gate) recorded for this sequence, QVQLVESGGGLVQAGGSLRLSCAASGRTFVYNAMGWYSQAPGKEREMVAAISFGGGNTYYADSVKGRFTISRDNAKNTVYLQMNSLIPEDTAVYYCAKAYIGYWGASWYYAYDYWGQGTQVTVSS , is low polyreactivity

polyreactivity (PSR sort gate) recorded for this sequence, QVQLVESGGGLVQAGGSLRLSCAASGIIFVVYDMGWYRQAPGKERELVAAINWSGGSTYYADSVKGRFTISRDNAKNTVYLQMNSLKPEDTAVYYCAAESFSDGSPYNYWGQGTQVTVSS , is low polyreactivity

polyreactivity (PSR sort gate) recorded for this sequence, QVQLVESGGGLVQAGGSLRLSWAASGRTLKYNAMGWYRQAHGKERELVSAISYSGSSTYYADSVKGRFTISRDNAKNTVYLQMNSLKPEDTAVYYCNTARPTAAYDYWGQGTQVTVSS , is low polyreactivity

polyreactivity (PSR sort gate) recorded for this sequence, QVQLVESGGGLVQAGGSLRLRSAASGYTFSIYAMGRYRQATGKERELVASISWSAGNTYYADYVKGRFTFSLDNAKNTVYLQMNSLKPEDTAVYYCAVPRRLIWYRPSSYDYWGQGTQVTVSS , is low polyreactivity

polyreactivity (PSR sort gate) recorded for this sequence, QVQLVESGGGLVQAGGSLRLSCAASGRTFFSYAMGWYRQAPGKERELVAAITYSGGRTYYADSVKGRFTISRDNAKNTVYLQMNSLKPVDTAVYYCAATHYREKMDYWGQGTQVTVSS , is low polyreactivity

polyreactivity (PSR sort gate) recorded for this sequence, QVQLVESGGGLVQAGGSLRLSCAEYDMGWYRQAPGKERELVATITARGGSTYADSVKGRFTISRDNAKNTVYLQMNSLKPEDTAVYYCAADRFFWLRSYPRYYYWGQGTQVTVSS , is low polyreactivity

polyreactivity (PSR sort gate) recorded for this sequence, QVQLVESGGGLVQAGGSLRLSCAASGRTFYSYAMGWYRQAPGKERELVASISYGGGTNYADSVKGRFTISRDNAKNTVYLQMNSLKPEDTAVYYCAAKYWFFYPYDYWGQGTQVTVSS , is low polyreactivity

polyreactivity (PSR sort gate) recorded for this sequence, QDQLVESVGGLVQAGGSLRLSCAASGLTISQNAMGWYRQAPGKERELVAAITRSGSTTHYADSVKWRFTISRDNAKNTVYLQMNSLKPEDTAVYYCAAAHSYYGHYYYWGQGTQVTVSS , is high polyreactivity

polyreactivity (PSR sort gate) recorded for this sequence, QVQLVESRGGLLQAGGSLRLSCAASGFTFRQYTMGWYRQAPGKERELVAGITSSGTRTYYADSVKGRFTISRDNAKNTVYLQMNSLKPEDTAVYYCATYSRWDYGYWGQGTQVTVSS , is high polyreactivity

polyreactivity (PSR sort gate) recorded for this sequence, QVQLVESGGGLVQAGGSLRLSCAASGSILQRYAMGWYRQAPGKERELVAAISTSGSSTYYADSVKGRFTISRDNAKNTVYLQMNSLKPEDTAVYYCAAKSRKFDYWGQGTQVTVSS , is high polyreactivity

polyreactivity (PSR sort gate) recorded for this sequence, QVQLVESGAGLVQAGGSLRLICAASGRTFYPNAMGWYRQAPGKERELVAAITYSGTRTYYADSVKGRFTISRDNAKNTVYLQMNSLKPEDTAVYYCAAVVGKIGFNYWGQGTQVTVSS , is high polyreactivity
